- Study target: T1, Recombinant Human DLL4 (human, UniProt Q9NR61 27-524)
- T1 construct: Bought recombinant human DLL4 (R&D Systems Cat#1506-D4/CF); also called delta-like protein 4; Delta-like 4
- Measurement description: ELISA, DLL4 coated on the plate, Fab at 100 nM, signal minus blank
Is ELISA Signal-blank (100 nM Fab) at least 0.2? Then Y. If not, N.

Worked examples follow.
Binder: Fab VH5-51_IGHD5-18*01>3_IGHJ4*01 G100K/G104T G24T/S28R/G35V (H:KT TRV) & V3-4_IGLJ1*01 M94F (Fab, V domains shown, Fab; expressed from plasmid A (CH1, His6 and Flag tags) and plasmid E (lambda CL)) VH: EVQLVQSGAEVKKPGESLKISCKTSGYRFTSYWIVWVRQMPGKGLEWMGIIYPGDSDTRYSPSFQGQVTISADKSISTAYLQWSSLKASDTAMYYCARRKYSYTYDYFDYWGQGTLVTVSS VL: QTVVTQEPSFSVSPGGTVTLTCGLSSGSVSTSYYPSWYQQTPGQAPRTLIYSTNTRSSGVPDRFSGSILGNKAALTITGAQADDESDYYCVLYFGSGISYVFGTGTKVTVL
Class name: Y
--
Binder: Fab VH5-51_IGHD5-18*01>3_IGHJ4*01 G100K/G104T G24T/S28R/G35V (H:KT TRV) & V3-4_IGLJ1*01 V91L (Fab, V domains shown, Fab; expressed from plasmid A (CH1, His6 and Flag tags) and plasmid E (lambda CL)) VH: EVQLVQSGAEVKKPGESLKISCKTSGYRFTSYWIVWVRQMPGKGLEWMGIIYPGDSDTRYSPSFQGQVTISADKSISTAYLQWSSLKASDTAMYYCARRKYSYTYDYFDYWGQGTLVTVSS VL: QTVVTQEPSFSVSPGGTVTLTCGLSSGSVSTSYYPSWYQQTPGQAPRTLIYSTNTRSSGVPDRFSGSILGNKAALTITGAQADDESDYYCLLYMGSGISYVFGTGTKVTVL
Class name: Y
--
Binder: Fab VH5-51_IGHD5-18*01>3_IGHJ4*01 G100K/G104T G24T/S28R/G35V (H:KT TRV) & V3-4_IGLJ1*01 V91H (Fab, V domains shown, Fab; expressed from plasmid A (CH1, His6 and Flag tags) and plasmid E (lambda CL)) VH: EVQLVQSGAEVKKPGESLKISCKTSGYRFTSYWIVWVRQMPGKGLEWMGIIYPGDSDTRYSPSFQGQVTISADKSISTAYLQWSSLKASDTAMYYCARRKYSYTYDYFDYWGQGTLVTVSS VL: QTVVTQEPSFSVSPGGTVTLTCGLSSGSVSTSYYPSWYQQTPGQAPRTLIYSTNTRSSGVPDRFSGSILGNKAALTITGAQADDESDYYCHLYMGSGISYVFGTGTKVTVL
Class name: N
--
Binder: Fab VH5-51_IGHD5-18*01>3_IGHJ4*01 G100K/G104T G24T/S28R/G35V (H:KT TRV) & V3-4_IGLJ1*01 M94D (Fab, V domains shown, Fab; expressed from plasmid A (CH1, His6 and Flag tags) and plasmid E (lambda CL)) VH: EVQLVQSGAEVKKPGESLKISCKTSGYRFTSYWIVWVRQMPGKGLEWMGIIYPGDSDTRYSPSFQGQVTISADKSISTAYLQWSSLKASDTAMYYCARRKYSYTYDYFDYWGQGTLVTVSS VL: QTVVTQEPSFSVSPGGTVTLTCGLSSGSVSTSYYPSWYQQTPGQAPRTLIYSTNTRSSGVPDRFSGSILGNKAALTITGAQADDESDYYCVLYDGSGISYVFGTGTKVTVL
Class name: N
--
Binder: Fab VH5-51_IGHD5-18*01>3_IGHJ4*01 G100K/G104T G24T/S28R/G35V (H:KT TRV) & V3-4_IGLJ1*01 S58A (Fab, V domains shown, Fab; expressed from plasmid A (CH1, His6 and Flag tags) and plasmid E (lambda CL)) VH: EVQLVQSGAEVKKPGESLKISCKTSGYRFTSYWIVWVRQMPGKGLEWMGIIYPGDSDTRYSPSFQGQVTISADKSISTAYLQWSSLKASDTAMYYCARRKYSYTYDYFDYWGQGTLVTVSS VL: QTVVTQEPSFSVSPGGTVTLTCGLSSGSVSTSYYPSWYQQTPGQAPRTLIYSTNTRSAGVPDRFSGSILGNKAALTITGAQADDESDYYCVLYMGSGISYVFGTGTKVTVL
Class name: Y
--
Binder: Fab VH5-51_IGHD5-18*01>3_IGHJ4*01 G100K/G104T G24T/S28R/G35V (H:KT TRV) & V3-4_IGLJ1*01 N54A (Fab, V domains shown, Fab; expressed from plasmid A (CH1, His6 and Flag tags) and plasmid E (lambda CL)) VH: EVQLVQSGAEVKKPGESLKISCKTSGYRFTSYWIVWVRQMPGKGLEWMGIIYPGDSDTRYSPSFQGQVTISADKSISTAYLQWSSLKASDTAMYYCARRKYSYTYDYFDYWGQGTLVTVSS VL: QTVVTQEPSFSVSPGGTVTLTCGLSSGSVSTSYYPSWYQQTPGQAPRTLIYSTATRSSGVPDRFSGSILGNKAALTITGAQADDESDYYCVLYMGSGISYVFGTGTKVTVL
Class name: Y
--
Binder: Fab VH5-51_IGHD5-18*01>3_IGHJ4*01 G100K/G104T G24T/S28R/G35V (H:KT TRV) & V3-4_IGLJ1*01 M94E (Fab, V domains shown, Fab; expressed from plasmid A (CH1, His6 and Flag tags) and plasmid E (lambda CL)) VH: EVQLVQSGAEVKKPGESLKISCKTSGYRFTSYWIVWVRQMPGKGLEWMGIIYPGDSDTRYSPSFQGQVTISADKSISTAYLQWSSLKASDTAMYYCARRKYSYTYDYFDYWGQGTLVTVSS VL: QTVVTQEPSFSVSPGGTVTLTCGLSSGSVSTSYYPSWYQQTPGQAPRTLIYSTNTRSSGVPDRFSGSILGNKAALTITGAQADDESDYYCVLYEGSGISYVFGTGTKVTVL
Class name: N

Consider the record given below.
API: above_or_equal(metric=ELISA Signal-blank (100 nM Fab), cutoff=0.2) for item Fab VH5-51_IGHD5-18*01>3_IGHJ4*01 G100K/G104T G24T/S28R/G35V (H:KT TRV) & V3-4_IGLJ1*01 V91S (Fab, V domains shown, Fab; expressed from plasmid A (CH1, His6 and Flag tags) and plasmid E (lambda CL)) VH: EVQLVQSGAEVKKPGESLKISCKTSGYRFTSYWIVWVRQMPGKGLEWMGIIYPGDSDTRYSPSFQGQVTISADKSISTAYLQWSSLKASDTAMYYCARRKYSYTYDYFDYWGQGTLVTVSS VL: QTVVTQEPSFSVSPGGTVTLTCGLSSGSVSTSYYPSWYQQTPGQAPRTLIYSTNTRSSGVPDRFSGSILGNKAALTITGAQADDESDYYCSLYMGSGISYVFGTGTKVTVL
Y
